molecular target: T1, UPAR-His recombinant protein (UniProt Q03405 23-303); experiment: phage ELISA, plate coated with UPAR-His, HRP-anti-M13
T1 construct: range 23-303; Expressed in 293 cells, purified on Ni-NTA; Biotinylated in the uPA ELISA; also called UPAR-His antigen; biotinUPAR-His; not shown: C-terminal His tag
T1 sequence (Q03405 23-303 limits assumed): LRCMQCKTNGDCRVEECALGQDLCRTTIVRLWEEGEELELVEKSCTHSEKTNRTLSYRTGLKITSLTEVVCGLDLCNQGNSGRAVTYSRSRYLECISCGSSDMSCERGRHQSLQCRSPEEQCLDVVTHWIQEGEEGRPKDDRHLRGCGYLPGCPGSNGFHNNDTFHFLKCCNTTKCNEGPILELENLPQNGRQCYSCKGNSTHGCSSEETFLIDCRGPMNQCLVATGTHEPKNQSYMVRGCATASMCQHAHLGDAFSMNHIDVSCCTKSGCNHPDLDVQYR
measure: S/N ratio

Ask: Give recorded S/N ratio. phage mono clone 3-E09 (VHH, the phage coat fusion part is not described) VHH: AVQLVDSGGGLVQPGGSLRLSCAASGFTFSSYAMGWARQVPGKGLEWVSIIYRDGNTYYTDSVKGRFTISRDNAKNTVYLQMNSLKPEDTAVYYCAPVETVAARRRDYWGQGTQVNVSS
Result: > 5

Ask: For the binder phage mono clone 3-E03 (VHH, the phage coat fusion part is not described) VHH: AVQLVDSGGGLVQAGGSLRLSCAASGIRLSSNAMAWYRQAPGKQRGLVALITSDGTTNYVDSVKGRFTISRDNAKNTVYLQMNSLKPEDTAVYYCKREPYLSTRGYWGQGTQVTVSS , give its reported S/N ratio.
Result: > 5
